tested on: L. infantum MHOM/MA (BE)/67; assay type: cell-based, Leishmania infantum; conditions: Leishmania infantum, Macrophage, in Mus musculus, 120 h, read-out: L. inf. EC50
pEC50: −log10 of the molar value.
MEASUREMENT LABEL: pEC50

[[record]]
input_smiles = "Cc1ncnc2c1c(C1=CCN(C)CC1)cn2[C@@H]1O[C@H](CO)[C@@H](O)[C@H]1O"
measurement_label = "pEC50"
observed_measurement = "< 4.19"


###

test: PMM cytotoxicity; format: cell-based, mouse; conditions: Swiss, mouse, PMM CC50, primary peritoneal mouse macrophages
MEASUREMENT LABEL: CC50 at 5 days

[[record]]
input_smiles = "CCCCCc1cn([C@@H]2O[C@H](CO)[C@@H](O)[C@H]2O)c2ncnc(C)c12"
observed_measurement = "> 64 µM"

[[record]]
input_smiles = "CCCCC#Cc1cn([C@@H]2O[C@H](CO)[C@@H](O)[C@H]2O)c2ncnc(C)c12"
observed_measurement = "8 µM"

[[record]]
input_smiles = "Cc1ncnc2c1c(C1=CCCCC1)cn2[C@@H]1O[C@H](CO)[C@@H](O)[C@H]1O"
observed_measurement = "> 64 µM"

[[record]]
input_smiles = "Cc1ncnc2c1c(C1=CCOCC1)cn2[C@@H]1O[C@H](CO)[C@@H](O)[C@H]1O"
observed_measurement = "> 64 µM"

[[record]]
input_smiles = "Cc1ncnc2c1c(CCc1ccccc1)cn2[C@@H]1O[C@H](CO)[C@@H](O)[C@H]1O"
observed_measurement = "> 64 µM"

[[record]]
input_smiles = "Cc1ncnc2c1c(Br)cn2[C@@H]1O[C@H](CO)[C@@H](O)[C@H]1O"
observed_measurement = "32 µM"

[[record]]
input_smiles = "Cc1ncnc2c1c(CCC1CC1)cn2[C@@H]1O[C@H](CO)[C@@H](O)[C@H]1O"
observed_measurement = "> 64 µM"

[[record]]
input_smiles = "Cc1ncnc2c1c(C#CC1CC1)cn2[C@@H]1O[C@H](CO)[C@@H](O)[C@H]1O"
observed_measurement = "> 64 µM"


###

assay: Microsomal stability assay, human; assay type: in vitro ADME; settings: pooled human liver microsomes (microsomal (S9) fractions), % remaining parent compound, UGT Enz. (Phase-II), 30 min
MEASUREMENT LABEL: remaining at 0.5 h

[[record]]
input_smiles = "Cc1ncnc2c1c(Cl)cn2[C@@H]1O[C@H](CO)[C@@H](O)[C@H]1O"
observed_measurement = "97%"

[[record]]
input_smiles = "CCc1cn([C@@H]2O[C@H](CO)[C@@H](O)[C@H]2O)c2ncnc(C)c12"
observed_measurement = "102%"


###

test system: T. b. brucei (Squib 427 strain); experiment: In vitro activity against T. b. brucei; type: cell-based; details: Trypanosoma brucei, read-out: T. b. bruc. EC50
pEC50: −log10 of the molar value.
Please note: yes (1) applies when pEC50 is 6 or greater, and no (0) applies otherwise.

[[record]]
input_smiles = "Cc1ncnc2c1c(C1=CCOCC1)cn2[C@@H]1O[C@H](CO)[C@@H](O)[C@H]1O"
group = "no (0)"

[[record]]
input_smiles = "CCc1cn([C@@H]2O[C@H](CO)[C@@H](O)[C@H]2O)c2nc[nH]c(=O)c12"
group = "no (0)"

[[record]]
input_smiles = "C=Cc1cn([C@@H]2O[C@H](CO)[C@@H](O)[C@H]2O)c2ncnc(C)c12"
group = "no (0)"

[[record]]
input_smiles = "Cc1ncnc2c1c(C1=CCN(C)CC1)cn2[C@@H]1O[C@H](CO)[C@@H](O)[C@H]1O"
group = "no (0)"

[[record]]
input_smiles = "Cc1ncnc2c1c(SC(F)(F)F)cn2[C@@H]1O[C@H](CO)[C@@H](O)[C@H]1O"
group = "no (0)"

[[record]]
input_smiles = "Cc1ncnc2c1c(CCC(C)C)cn2[C@@H]1O[C@H](CO)[C@@H](O)[C@H]1O"
group = "no (0)"

[[record]]
input_smiles = "CCCCCCc1cn([C@@H]2O[C@H](CO)[C@@H](O)[C@H]2O)c2ncnc(C)c12"
group = "no (0)"

[[record]]
input_smiles = "CC(C)=Cc1cn([C@@H]2O[C@H](CO)[C@@H](O)[C@H]2O)c2ncnc(C)c12"
group = "no (0)"

[[record]]
input_smiles = "Cc1ncnc2c1c(-c1ccccc1)cn2[C@@H]1O[C@H](CO)[C@@H](O)[C@H]1O"
group = "no (0)"

[[record]]
input_smiles = "CCc1cn([C@@H]2O[C@H](CO)[C@@H](O)[C@H]2O)c2ncnc(N)c12"
group = "yes (1)"

[[record]]
input_smiles = "CCc1cn([C@@H]2O[C@H](CO)[C@@H](O)[C@H]2O)c2ncnc(CC)c12"
group = "no (0)"

[[record]]
input_smiles = "Cc1ncnc2c1c(C1=CCCCC1)cn2[C@@H]1O[C@H](CO)[C@@H](O)[C@H]1O"
group = "no (0)"

[[record]]
input_smiles = "Cc1ncnc2c1c(CCc1ccccc1)cn2[C@@H]1O[C@H](CO)[C@@H](O)[C@H]1O"
group = "no (0)"

[[record]]
input_smiles = "Cc1ncnc2c1c(C1CCOCC1)cn2[C@@H]1O[C@H](CO)[C@@H](O)[C@H]1O"
group = "no (0)"

[[record]]
input_smiles = "Cc1ncnc2c1c(CCC1CC1)cn2[C@@H]1O[C@H](CO)[C@@H](O)[C@H]1O"
group = "no (0)"

[[record]]
input_smiles = "CCCCC#Cc1cn([C@@H]2O[C@H](CO)[C@@H](O)[C@H]2O)c2ncnc(C)c12"
group = "yes (1)"

[[record]]
input_smiles = "Cc1ncnc2c1c(Br)cn2[C@@H]1O[C@H](CO)[C@@H](O)[C@H]1O"
group = "no (0)"

[[record]]
input_smiles = "Cc1ncnc2c1c(C1CCCCC1)cn2[C@@H]1O[C@H](CO)[C@@H](O)[C@H]1O"
group = "no (0)"

[[record]]
input_smiles = "Cc1ncnc2c1c(Cl)cn2[C@@H]1O[C@H](CO)[C@@H](O)[C@H]1O"
group = "no (0)"

[[record]]
input_smiles = "Cc1ncnc2c1c(/C=C/c1ccccc1)cn2[C@@H]1O[C@H](CO)[C@@H](O)[C@H]1O"
group = "no (0)"

[[record]]
input_smiles = "Cc1ncnc2c1c(F)cn2[C@@H]1O[C@H](CO)[C@@H](O)[C@H]1O"
group = "yes (1)"

[[record]]
input_smiles = "CCc1cn([C@@H]2O[C@H](CO)[C@@H](O)[C@H]2O)c2ncnc(OC)c12"
group = "yes (1)"

